Examples of compounds with documented GI50 follow.
system: SNB-75 CNS; experiment: NCI tumour cell line growth inhibition, 48 h
Measured property: GI50

INSERT INTO measurements (compound, assayed_target, readout_value) VALUES
  ('O=C(/C=C/c1nnc2n(Cc3ccccc3)c(=O)c3c4c(sc3n12)CCCC4)c1ccccc1', 'SNB-75 CNS', '21.3 µM'),
  ('CCOc1cc(/C=C/C(=O)C(C(=O)/C=C/c2ccc(OC(=O)CNc3nnc(C)s3)c(OCC)c2)C(=O)CNc2nnc(C)s2)ccc1OC(=O)CNc1nnc(C)s1', 'SNB-75 CNS', '2.93 µM'),
  ('O=C(c1cccs1)c1nc2cc(Cl)ccc2[n+]([O-])c1C(F)(F)F', 'SNB-75 CNS', '57.3 µM'),
  ('FC(F)(F)c1ccc(-c2ncc(-c3ccc(C(F)(F)F)cc3)c(NCc3cc(C(F)(F)F)cc(C(F)(F)F)c3)n2)cc1', 'SNB-75 CNS', '4.17 µM'),
  ('Cc1cc(C(O)(c2ccc(Nc3ccccc3)cc2)c2ccc(Nc3ccc(S(=O)(=O)O)cc3)cc2)ccc1N (configuration not stated)', 'SNB-75 CNS', '1.29 µM'),
  ('CC(=O)OCC1OC([Se-])C(OC(C)=O)C(OC(C)=O)C1OC(C)=O.N#CCC[PH+](CCC#N)CCC#N.[Au+] (configuration not stated)', 'SNB-75 CNS', '21.3 µM'),
  ('N#C/C(=C\c1ccc(F)cc1)n1nc2cccc(F)c2n1', 'SNB-75 CNS', '2.37 µM');
